Each entry below carries its recorded pIC50.
- TARGET_UNDER_TEST: recombinant human GST-Syk (Homo sapiens)
- Construct: purchased Carna Biosciences 08-176
- PROTOCOL_TEXT: Homogeneous Time-Resolved Fluorescence (HTRF) assay for the recombinant human Syk enzyme
- Type: biochemical
- REPORTED_CONDITIONS: recombinant human GST-Syk 5 pM, ATP 25 μM, 10-dose titration 10 μM to 0.508 nM; read-out: rhSYK Activity IC50
Interpret pIC50 as the negative base-10 log of the concentration measured in mol/L.

1) Cc1cc(Nc2cc(C(F)(F)F)ccn2)nc(-c2cn(CC(O)CN3CCOC3=O)nn2)c1 (centres unmarked) [Example 4.33] = 7.83
2) Cc1cc(Nc2cc(C(F)(F)F)ccn2)nc(-c2cn(C3CCCCC(O)C3O)nn2)c1 (single isomer, unassigned) [Example 10.2] = 7.75
3) Cc1cc(Nc2nccc(C(F)F)n2)cc(-c2cn(CC3(O)CNC(=O)C3)nn2)c1 (single isomer, unassigned) [Example 31.2] = 8.33
4) Cc1cc(Nc2cc(C(F)(F)F)ccn2)nc(-c2cn(CC(O)C(=O)O)nn2)c1 (racemic) [Example 5.39] = 7.35
5) CCOC(=O)C(CC)n1cc(-c2cc(C)cc(Nc3cc(C(F)(F)F)ccn3)n2)nn1 (racemic) [Example 5.28] = 7.12
6) Cc1cc(Nc2cc(C(F)F)ccn2)nc(-c2cn(C(C)C3CNC(=O)O3)nn2)c1 (single isomer, unassigned) [Example 7.11] = 8.85
7) Cc1cc(Nc2cc(C(F)(F)F)ccn2)nc(-c2cn(C3CCC(C(N)=O)C(C)(C)C3)nn2)c1 (single isomer, unassigned) [Example 1.5] = 8.10
8) CC/C=C/Cn1cc(-c2cc(C)cc(Nc3cc(C(F)(F)F)ccn3)n2)nn1 [Example 5.31] = 7.31

Query: Lab note: need pIC50 with recombinant human GST-Syk (Homo sapiens) for entry Cc1cc(Nc2nccc(C(F)F)n2)cc(-c2cn(CC3=CCC(=O)N=C3)nn2)c1 [Example 7.16] , please look it up.
Response: 8.64

Query: Lab note: need pIC50 with recombinant human GST-Syk (Homo sapiens) for entry Cc1cc(Nc2nccc(C(F)F)n2)cc(-c2cn(CC3OC(=O)NC34CC4)nn2)c1 (single isomer, unassigned) [Example 7.17] , please look it up.
Response: 8.96

Query: Lab note: need pIC50 with recombinant human GST-Syk (Homo sapiens) for entry Cc1cc(Nc2cc(C(F)(F)F)ccn2)nc(-c2cn(CC(O)c3ccc(C(=O)O)cc3)nn2)c1 (centres unmarked) [Example 3.18] , please look it up.
Response: 8.72

Query: Lab note: need pIC50 with recombinant human GST-Syk (Homo sapiens) for entry Cc1cc(Nc2cc(C(F)(F)F)ccn2)nc(-c2cn(C(C(N)=O)c3ccc(F)cc3)nn2)c1 (centres unmarked) [Example 1.17] , please look it up.
Response: 8.36

Query: Lab note: need pIC50 with recombinant human GST-Syk (Homo sapiens) for entry Cc1cc(Nc2cc(C)c(Cl)cn2)nc(-c2cn(CC(C)(O)C(C)(C)O)nn2)c1 (centres unmarked) [Example 21.10] , please look it up.
Response: 7.70

Query: Lab note: need pIC50 with recombinant human GST-Syk (Homo sapiens) for entry Cc1cc(Nc2cc(C(F)F)ccn2)nc(-c2cn(CC(C)(O)C(C)(C)O)nn2)c1 (centres unmarked) [Example 21.9] , please look it up.
Response: 7.87
